Biological target: DNA polymerase eta (Homo sapiens) (UniProt Q9Y253)
Sequence (Q9Y253 whole entry, looked up): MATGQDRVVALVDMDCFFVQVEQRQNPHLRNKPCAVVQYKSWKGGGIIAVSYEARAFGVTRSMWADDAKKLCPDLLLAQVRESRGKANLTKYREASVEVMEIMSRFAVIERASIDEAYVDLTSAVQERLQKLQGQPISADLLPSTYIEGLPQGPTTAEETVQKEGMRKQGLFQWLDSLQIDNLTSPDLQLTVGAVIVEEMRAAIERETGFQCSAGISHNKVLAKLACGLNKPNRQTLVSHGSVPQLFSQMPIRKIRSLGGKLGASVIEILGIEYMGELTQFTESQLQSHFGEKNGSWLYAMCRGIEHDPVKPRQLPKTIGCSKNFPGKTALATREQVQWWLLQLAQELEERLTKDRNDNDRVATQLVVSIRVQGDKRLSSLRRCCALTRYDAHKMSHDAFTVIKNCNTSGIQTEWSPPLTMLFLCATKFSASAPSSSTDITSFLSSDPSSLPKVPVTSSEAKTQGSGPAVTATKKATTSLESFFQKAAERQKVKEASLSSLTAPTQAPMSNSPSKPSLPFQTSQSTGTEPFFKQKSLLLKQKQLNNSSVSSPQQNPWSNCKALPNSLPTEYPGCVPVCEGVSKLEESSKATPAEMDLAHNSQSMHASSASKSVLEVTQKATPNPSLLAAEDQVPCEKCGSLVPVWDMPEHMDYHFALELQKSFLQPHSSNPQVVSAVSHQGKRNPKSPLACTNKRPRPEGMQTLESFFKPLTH
Experiment: qHTS for Inhibitors of Polymerase Eta
Settings: recombinant Pol eta, fluorescent DNA replication assay; series mostly up to 114 µM
Among all 390,000 compounds or so, about 4,700 (1.2%) were called active. Inconclusive results (about 4%) are left out. Calls follow the shape of the dose curve; as a rule, active = well fitted inhibition curve with a large enough effect; inconclusive = small, poorly fitted or top-dose-only effect, or another doubt; inactive = no such curve, though single readings can be large or run the other way. The full list was thinned out, with actives kept by preference.
Your response should consist of one outcome taken from true (active), false (inactive)

CSc1ccc(CCNC(=O)c2cnn(-c3ccccc3)c2-n2cccc2)cc1
false
O=C(COc1ccccc1F)OCc1cc(=O)n2nc(C3CCCCC3)sc2n1
false
Cc1oc2ccc(O)c(CN3CCCCC3)c2c1C(=O)Nc1cccc(C(F)(F)F)c1
false
CCOc1ccc(S(=O)(=O)N(CC(=O)NCCSCc2ccc(C)cc2)c2ccccc2)cc1
false
CCc1ccccc1NC(=O)Cn1c(=O)n(CC2CCC(C(=O)NCCc3ccccc3)CC2)c(=O)c2ccccc21 (stereo unspecified)
false

Give the logged outcome of this assay for the following compound: COc1ccc(C(=O)Nc2nonc2-c2ccc(OC)c(OC)c2)cc1Cl
false

And Cc1ccc(CN2CCC(CNC(=O)c3cnn(-c4ccccc4Cl)c3C3CCN(C(=O)OC(C)(C)C)CC3)CC2)cc1 ?
false

Entry COCCCn1c(SCC(=O)NC2CCCC2)nnc1-c1ccccc1 please
false

====

Target: DNA polymerase eta (Homo sapiens)
Assay: qHTS for Inhibitors of Polymerase Eta
Settings: recombinant Pol eta, fluorescent DNA replication assay; series mostly up to 114 µM
Screen size: about 390,000 compounds; about 4,700 (1.2%) were called active. About 4% were inconclusive and are not listed. The call rests on the fitted dose curve; in most records, active means well fitted inhibition curve with a large enough effect; inconclusive means small, poorly fitted or top-dose-only effect, or another doubt; inactive means no such curve, though single readings can be large or run the other way. Many of the other results were omitted from the sample, so actives are more common in it than they were.
Hello, when you answer, please use one of the following outcomes: active, inactive

# example entries with known answers
CCOC(=O)Cc1csc(NC(=O)CN(C)S(=O)(=O)c2ccc3c(c2)CCC(=O)N3)n1
inactive
CC(=O)c1c(C)[nH]c(C(=O)COc2ccc3c(C)cc(=O)oc3c2)c1C
inactive
CCOC(=O)Cc1csc(SCc2cc(=O)oc3cc(O)ccc23)n1
inactive

Note: attention shifts to another entry.
// return assay outcome for CCOC(=O)Cc1csc(NC(=O)COc2ccc3c(C)cc(=O)oc3c2)n1
active

====

Molecular target: DNA polymerase eta (Homo sapiens)
Test: qHTS for Inhibitors of Polymerase Eta
Conditions: recombinant Pol eta, fluorescent DNA replication assay; series mostly up to 114 µM
Screen size: about 390,000 compounds; about 4,700 (1.2%) were called active. Not shown: some 4% with an inconclusive outcome. Calls follow the shape of the dose curve; as a rule, active = well fitted inhibition curve with a large enough effect; inconclusive = small, poorly fitted or top-dose-only effect, or another doubt; inactive = no such curve, though single readings can be large or run the other way. The sample holds actives, similar compounds and a random draw of the others, so the mix is not that of the screen.
Use one of these outcomes when replying: active, inactive

O=C(CN1c2ccccc2S(=O)(=O)c2ccccc21)Nc1cccc(C(F)(F)F)c1
inactive
CC(C)(C)C1C/C(=C/c2ccco2)C(=O)/C(=C/c2ccco2)C1 (stereo unspecified)
active
CC1=C(c2ccc(C)cc2)S(=O)(=O)NC1=NCCCN1CCN(c2cc(C)ccc2C)CC1
inactive
COc1ccc(C2Sc3ccccc3NC3=C2C(=O)c2ccccc23)c(OC)c1OC (stereo unspecified)
inactive
Cc1ccccc1NC(=O)c1cc2c([nH]c1=O)CC(C)(C)CC2=O
inactive
CCC1(C)CC(=O)NC1=O (stereo unspecified)
inactive
CCCNC(=O)c1ccc2c(c1)ncn2-c1ccc(C)cc1C
inactive
C=C(C)C(=O)Nc1cccc(C2=NOC3(C2)C[C@H](C(N)=O)N(C(=O)C(c2ccccc2)c2ccccc2)C3)c1 (stereo partly specified)
active
CCc1ccccc1OCC(=O)Nc1nnc(C2CC2)s1
inactive
COc1ccc(CCNCc2c(C(=O)O)c(C)n(Cc3cccc(C)c3)c2C)cc1OC
inactive

Look up the recorded call for Cc1cc(C)c2c(c1)c(C)cc1nnc(SCC(=O)NCc3ccco3)n12 in this test.
inactive

CCCc1cc(=O)[nH]c(SCC(=O)Nc2ccc(C(=O)Nc3ccccc3OC)cc2)n1 , same question.
inactive

Now consider COc1cccc2c1C(=O)c1c(O)c3c(c(O)c1C2=O)CC(O)(C(C)=NNC(=O)c1ccc(Cl)c(Cl)c1)CC3OC1CC(N)C(O)C(C)O1 (stereo unspecified) .
active

Note, next up: O=c1nc2s/c(=C\c3ccco3)c(=O)n2nc1Cc1ccccc1
active

Param item: CC(=O)c1cc(-c2ccccc2)[nH]c1N1CCCC1
inactive

// same read-out, input: O=C1NN(c2ccccc2)C(=O)/C1=C/c1ccc(-c2cccc(C(=O)O)c2)o1
active

Check NC(=O)[C@H]1CC2(CC(c3cccc(NC(=O)[C@H]4CCC(=O)N4)c3)=NO2)CN1C(=O)c1ccccc1C(=O)c1ccccc1 (stereo partly specified) too.
inactive

Check COc1ccc(CCNc2ncnc3onc(-c4ccc(Cl)cc4)c23)c(OC)c1 too.
inactive

Also CCN(CC)S(=O)(=O)c1ccc2c(c1)nc(CN(C)C(=O)Nc1ccc(Cl)cc1)n2C ?
inactive

// same read-out, input: CCc1cc(C(=O)Nc2nnc(C3CC3)s2)sc1C
active

Now try CCOc1ccccc1N(CC)C(=O)c1cc2ccc3cccnc3c2[nH]1 .
inactive

Would you kindly repeat that for Oc1ccc(Cn2cc[nH]c2=S)cc1 ?
inactive

Now the compound CCN(CC)c1ccc(NC(=O)Cn2nc3c(cc2=O)CCCC3)c(C)c1
inactive

Item: N#Cc1c(N2CCCCC2)nc(N)c2c(N)nc(SCC(=O)O)cc12
active

Now give it for Cc1c2cnn(-c3ccccc3)c(=O)c2c(C)n1C(C)C(=O)Nc1ccc(Br)cc1F (stereo unspecified) too.
inactive

Then this compound: Cn1c(=O)[nH]c(=O)c2c1nc(NCCc1ccccc1)n2Cc1ccc(F)cc1
inactive

====

Target: DNA polymerase eta (Homo sapiens) (UniProt Q9Y253)
Assay: qHTS for Inhibitors of Polymerase Eta
Conditions: recombinant Pol eta, fluorescent DNA replication assay; series mostly up to 114 µM
The campaign covered roughly 390,000 compounds. About 4,700 (1.2%) were called active. Roughly 4% stayed inconclusive and do not appear here. The call rests on the fitted dose curve; in most records, active means well fitted inhibition curve with a large enough effect; inconclusive means small, poorly fitted or top-dose-only effect, or another doubt; inactive means no such curve, though single readings can be large or run the other way. The list comes from a sample in which actives are over-represented; it also holds close analogues and randomly drawn compounds.
// allowed return values: Yes for active, No for inactive

CCOc1ccc(NC(=O)c2c(NC(=O)Cc3ccccc3)sc3c2CCC(C)C3)cc1 (stereo not given)
No
CCCC(=O)N1CCN(c2nc3c(OC)ccc(C)c3s2)CC1
No
CCCCc1nn2c(=O)cc(COC(=O)c3ccccc3NC(=O)C(C)(C)C)nc2s1
No
COc1ccccc1C(=O)NC(=O)COC(=O)c1ccco1
No
CC(=O)Nc1ccc(NC(=O)C2CCCN(S(=O)(=O)c3ccc4c(c3)CCCC(=O)N4)C2)cc1 (stereo not given)
No

Recorded test outcome, item Cc1cc(/C=N/Nc2ccc([N+](=O)[O-])cn2)c(C)n1-c1cccc(C(=O)O)c1
Yes

Same question for Cc1ccc(/C=C/C(=O)Nc2ccc([N+](=O)[O-])c(NC(=O)/C=C/c3ccc(C)o3)c2)o1 please.
Yes

Continue with Cc1ccc(NC(=O)CSc2nnc3[nH]c(=O)cc(C)n23)cc1Cl
No

Proceed to COc1ccccc1C(=O)N/C(=C/c1ccco1)C(=O)Nc1ccc(C(=O)O)cc1
Yes

Query O=C(NCc1ccc(F)cc1)c1ccc2nc(N3CCCCC3)sc2c1 next
No

Now consider COc1ccc(OC)c(NC(=O)/C=C/c2ccc(C)o2)c1 .
No

Same for COc1ccccc1C(=O)N/C(=C/c1ccc2c(c1)OCO2)C(=O)Nc1cccc(C(=O)O)c1
No

Further, for COc1ccccc1CNS(=O)(=O)c1cc(Br)cc2c1N(C(C)=O)C(C)C2 (stereo not given) ?
No

Thanks! And CC(C)C(=O)Nc1nc2c(s1)CC(C(C)(C)C)CC2 (stereo not given) ?
No

Again, but for O=C(CCc1nc(CN2CCN(S(=O)(=O)c3ccc(F)cc3)CC2)no1)N1CCCCC1
No

====

Molecular target: DNA polymerase eta (Homo sapiens)
Test: qHTS for Inhibitors of Polymerase Eta; also: potency is read from the fitted curve at half-maximal effect
Conditions: recombinant Pol eta, fluorescent DNA replication assay; series mostly up to 114 µM
Out of some 390,000 compounds screened, about 4,700 (1.2%) were called active. Inconclusive results (about 4%) are left out. The full list was thinned out, with actives kept by preference.
Reported endpoint: Potency

Cc1nn(-c2nc(-c3ccccc3)cc(C(F)(F)F)n2)c(C)c1Cl
inactive
O=C(CCS(=O)(=O)c1cc(Br)cc2c1N(C(=O)C1CC1)CC2)Nc1ccc(Br)cc1F
inactive
NC(=O)c1c(NC(=O)CSc2nnc(-c3ccco3)n2N)sc2c1CCCC2
12.6 µM (active)
CCNC(=O)CC1C(=O)N(c2ccc(F)cc2)C(=O)N1Cc1ccc(C)cc1 (stereo not given)
inactive
CCOc1ccc(N(C)S(=O)(=O)c2cc(-c3cnc(C)o3)ccc2OC)cc1
inactive

Which Potency value belongs to Cc1ccc(N(Cc2ccccc2O)C(=O)c2ccccc2F)cc1 ?
inactive

Repeat for the following compound: Cc1c(CC(=O)N2CCN(C(=O)C3COc4ccccc4O3)CC2)c(=O)oc2c(O)c(O)ccc12 (stereo not given)
2 µM (active)

Record: Cn1nnnc1SCc1cc(=O)[nH]c2ccccc12
inactive

Also need Cc1ccc(N(CC(=O)NCc2ccc(Cl)cc2)S(=O)(=O)N(C)C)cc1 , thanks.
inactive

Also C#Cc1ccc([C@@H]2C=C(C(=O)O)O[C@H](OCCCCO)C2)cc1 , if possible.
20 µM (active)

Do the same for C=CC1(C)CC(=O)C2(O)C(C)(O1)C(OC(C)=O)C(O)C1C(C)(C)CCC(O)C12C (stereo not given) please
inactive

How about this compound: Cc1ccccc1NC(=O)Cn1c(=O)n(CC2CCC(C(=O)NCCc3ccccc3)CC2)c(=O)c2ccccc21 (stereo not given)
inactive

Entry COc1ccc(OC)c2sc(N3CCN(C(=O)C4COc5ccccc5O4)CC3)nc12 (stereo not given) please
inactive

Next compound up: C=C1c2c(Cl)ccc(O)c2C(O)=C2C(=O)[C@]3(O)C(O)=C(C(N)=O)C(=O)[C@@H](N(C)C)[C@@H]3[C@@H](O)C12 (stereo not given in full)
35.5 µM (active)

Please give the result for Cc1ccc(C)c(NC(=O)CSC2=Nc3ccccc3N=C(c3ccc(F)cc3)C2)c1 too.
inactive
